ASSAY PROTOCOL: in vivo
CONDITION PARAMETERS: rat, po, 40 mg/kg
Counter-ions that a name gives are not always drawn.
QUANTITY: Cmax

{"columns": ["MOLECULE", "QUANTITY", "OBSERVED"],
 "data": [
  ["CN(C)C(=N)N=C(N)N [Metformin HCl, metformin hydrochloride]", "Cmax", "~4080 ng/mL"]
]}

====

ASSAY PROTOCOL: in vivo
CONDITION PARAMETERS: male, Sprague-Dawley, rat, plasma, other: intracolonic bolus, ligated colon, 10 mg/rat
Structures can show the parent of a compound that is named as a salt.

{"columns": ["COMPOUND", "UNIT OF MEASURE", "concentration at 0 h"],
 "data": [
  ["CN(C)C(=N)N=C(N)N [Metformin HCl, metformin hydrochloride]", "ng/mL", 0]
]}
